biological target: Torsin-1A-interacting protein 1 (Homo sapiens); test: LAP1 binders from COS7 cell lysate, primary screen, small-molecule microarray, 635/667 nm fluorescence (AID 1116); conditions: COS7-hLAP1 lysate binding, 635 nm fluorescence, higher = more signal
Think of 0.9 as a floor: if composite z-score stands on it or above, it is Condition met; beneath it, Condition not met.

IN: Dear colleague, could you confirm whether C=CC[C@]1(C(=O)O)N=C(c2ccc(OCCCO)cc2)O[C@H]1c1ccccc1 has composite z-score at or above 0.9?
OUT: Condition not met

IN: Reported composite z-score reaches at least 0.9 for [N-]=[N+]=NCc1ccccc1[C@H]1OC(c2ccc(OCCCO)cc2)=N[C@@]1(Cc1ccccc1N=[N+]=[N-])C(=O)NCc1ccccc1 ?
OUT: Condition not met

IN: Could you tell me if the measured composite z-score of CCCC[C@H]1OB(O)C[C@H]2C1=C(COC)C[C@H]1C(=O)N(Cc3ccccc3)C(=O)[C@H]12 reaches 0.9 or more?
OUT: Condition not met

IN: Hello, I need to know if COC(=O)[C@@]1(Cc2ccc(OC)cc2)[C@H]2c3cc(C(=O)N(C)C)n(CCc4ccc(OC)c(Br)c4)c3C[C@H]2CN1C(=O)c1ccccc1 has measured composite z-score not below 0.9. Thanks!
OUT: Condition met

IN: Say whether Cc1ccc(N2C(=O)c3ccccc3[C@](C)(C(=O)NCC(C)C)[C@@H]2c2ccc(CO)cc2)nc1 shows composite z-score of 0.9 or more.
OUT: Condition not met

IN: Can COCCOC(=O)N1C(=O)[C@@]2(c3cc(C#CC4(O)CCCCCC4)ccc31)[C@H](C(=O)N1CCCCCCC1)[C@H]1C(=O)O[C@H](c3ccccc3)[C@H](c3ccccc3)N1[C@@H]2c1ccc(O)cc1 be said to have composite z-score at or above 0.9?
OUT: Condition met

----------
Each entry below lists one item and its recorded z-score value.
experiment: E. coli DRC41 culture turbidity changes, primary screen, E. coli filamentation inducer project, strain DRC41, OD650, 48 h (AID 1152);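 further: E. coli MC1000 strain DRC41 lacking acrAB efflux pump and sulA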; conditions: E. coli DRC41 (acrAB sulA), higher = more signal, called active from +8 up or from −8 down
Please give only the number in your answer, with no unit.

>  <Query smiles>
CC(C)(C)OC(=O)CC[C@@]1(C(=O)NCc2ccccc2)N=C(c2ccc(OCCCO)cc2)O[C@@H]1c1ccccc1

>  <Property measured>
z-score

>  <Result number>
1.9

$$$$
>  <Query smiles>
Cc1ccc(N2C(=O)c3ccccc3[C@@H](C(=O)NCc3ccccc3)[C@@H]2c2ccc(CO)cc2)nc1

>  <Property measured>
z-score

>  <Result number>
1.85

$$$$
>  <Query smiles>
CCC(=O)[C@]12O[C@@]3([C@@H]4C(=O)OCC[C@@H]41)N(CC)C(C)=C(C(=O)OC)[C@@H](c1ccccc1)N3C2=O

>  <Property measured>
z-score

>  <Result number>
0.362

$$$$

Below: the item to evaluate.
IN: # input compound: CC(=O)NCCCC[C@@H]1NC(=O)[C@@H]2C[C@H](C(=O)NCCCCCNC(=O)CS)[C@H](c3ccc(O)cc3)N2C1=O ; wanted: its z-score
OUT: 3.01

----------
target: Streptavidin (Streptomyces avidinii) (UniProt P22629); assay: streptavidin binders on small-molecule microarray, primary screen, artefact control for SMM compound annotation, biophysical, 635/667 nm fluorescence (AID 1147); conditions: streptavidin binding, higher = more signal;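 further: signal reflects streptavidin binding to arrayed compounds as a control protein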
Sequence (P22629 whole entry, looked up): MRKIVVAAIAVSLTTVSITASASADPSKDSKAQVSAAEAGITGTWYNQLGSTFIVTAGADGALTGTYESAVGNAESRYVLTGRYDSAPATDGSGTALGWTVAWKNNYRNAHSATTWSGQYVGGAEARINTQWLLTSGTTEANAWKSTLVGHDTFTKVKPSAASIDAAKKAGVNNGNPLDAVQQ
Use True when the recorded composite z-score is no lower than 0.1; use False when it is lower.

Example entries and their recorded answers appear below.
>  <Molecule>
CO[C@H]1O[C@H](CO)[C@@H](OC(=O)Nc2ccc3c(c2)OCO3)[C@H](OC(=O)Nc2ccccc2)[C@@H]1OC(=O)Nc1ccccc1

>  <System tested>
Streptavidin (Streptomyces avidinii) (UniProt P22629)

>  <Classification>
True

$$$$
>  <Molecule>
C=CC[C@]1(C(=O)NCC(O)CO)N=C(c2ccc(OCCCO)cc2)O[C@H]1c1ccccc1 (stereo partly drawn)

>  <System tested>
Streptavidin (Streptomyces avidinii) (UniProt P22629)

>  <Classification>
False

$$$$
>  <Molecule>
CC(=O)NCCCC[C@@H]1NC(=O)[C@H]2C[C@@H](C(=O)NCCCCCCN(C)C)[C@@H](c3ccc(O)cc3)N2C1=O

>  <System tested>
Streptavidin (Streptomyces avidinii) (UniProt P22629)

>  <Classification>
True

$$$$
>  <Molecule>
COCCOC(=O)N1C(=O)[C@@]2(c3cc(C#CCNC(N)=O)ccc31)[C@H](C(=O)N1CCCCCCC1)[C@H]1C(=O)O[C@H](c3ccccc3)[C@H](c3ccccc3)N1[C@@H]2c1ccccc1OCCO

>  <System tested>
Streptavidin (Streptomyces avidinii) (UniProt P22629)

>  <Classification>
True

$$$$
>  <Molecule>
C=CC[C@]1(C(=O)N2CCCCC2)N=C(c2ccc(OCCCO)cc2)O[C@H]1c1ccccc1N=[N+]=[N-]

>  <System tested>
Streptavidin (Streptomyces avidinii) (UniProt P22629)

>  <Classification>
True

$$$$

IN: Record CO[C@@H]1COC(=O)[C@H](COCc2ccccc2)NC(=O)CC=C[C@@H](C)[C@H](OC)COC(=O)[C@H](COCc2ccccc2)NC(=O)CC=C[C@H]1C ; criterion: composite z-score no lower than 0.1. Met?
OUT: False

IN: // inclusive: composite z-score at least 0.1? input: C=CC[C@@]12N=C(c3ccc(OCCCO)cc3)O[C@@H]1c1ccccc1CN(Cc1ccccc1)C2=O
OUT: False

IN: Form field: composite z-score at least 0.1? Entry: COc1cc(CO)cc(I)c1O[C@H]1C=C(C(=O)NCCO)C[C@@H](NCCc2c[nH]c3ccccc23)[C@@H]1O
OUT: False
